assay: activity coefficient (dimensionless); of the first substance listed, at infinite dilution; xn = mol fraction of the nth substance listed; conditions: 308.15 K; Liquid; Chromatography; x1 = 0
Endpoint Label: activity coefficient

Compound	activity coefficient
CCCCCCCC [octane] + CCCCn1cc[n+](C)c1.N#C[S-]	311
C#CCCCC [1-hexyne] + CCCCn1cc[n+](C)c1.N#C[S-]	6.45
C#CCCCCCC [1-octyne] + CCCCn1cc[n+](C)c1.N#C[S-]	15.1
CCCCCC [hexane] + CCCCn1cc[n+](C)c1.N#C[S-]	189
C#CCCC [1-pentyne] + CCCCn1cc[n+](C)c1.N#C[S-]	4.68

(A) CCO [ethanol] + CCCCn1cc[n+](C)c1.N#C[S-]
(B) C=CCCCCC [1-heptene] + CCCCn1cc[n+](C)c1.N#C[S-]
## Task Which record shows the lower activity coefficient: the first, A , or the second, B ? Indicate which entry you chose by stating its label.
## Result A
(A: 0.709, B: 73.7)
